experiment: M. tuberculosis growth inhibition, HTS (AID 449762);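 further: bacterial growth assessed after seven days of incubation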; details: M. tuberculosis H37Rv growth inhibition, 7H9 media; at 25 µM; hits give high values
The whole screen tested about 330,000 compounds, of which about 1,900 (0.58%) were called active. Not shown: some 4% with an inconclusive outcome. These entries were drawn from the full list. Potency and affinity values are given separately.
Metric: inhibition (%)
Please respond with the number in % and leave the unit unwritten.

input: Endpoint output: inhibition of CCN(CCO)C(=S)Nc1cc(S(=O)(=O)N(C)C)ccc1C . Value?
output: -0.4

----------
test: M. tuberculosis growth inhibition, HTS (AID 449762);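 further: bacterial growth assessed after seven days of incubation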; conditions: M. tuberculosis H37Rv growth inhibition, 7H9 media; at 25 µM; hits give high values
Among all 330,000 compounds or so, about 1,900 (0.58%) were called active. Inconclusive results (about 4%) are left out. Not all results are given here. Entries with a potency or affinity are not part of this list.
The following molecules are shown together with reported inhibition values.

Below, 4 molecules whose answers are already recorded.
Clc1ccc(-c2cc3ccccc3nc2N2CCOCC2)cc1 = 48.3% (inactive)
Cc1ccc(NC(=O)c2ccc(OC(=O)COc3ccc(Cl)c(C)c3)cc2)cc1 = -2.96% (inactive)
COc1cc(NS(=O)(=O)c2ccc(NC(=S)NC(=O)c3sc4ccccc4c3Cl)cc2)nc(OC)n1 = -0.21% (inactive)
CCn1cc(Cl)c(C(=O)N2N=C(c3ccc4ccccc4c3)CC2c2ccccc2O)n1 (stereo unspecified) = 0.64% (inactive)

input: Endpoint output: inhibition of COc1ccccc1NC(=O)CSCc1cc(=O)n2ccsc2n1 . Value?
output: 3.56% (inactive)

input: Endpoint output: inhibition of Cn1ccc(NC(=O)CCl)n1 . Value?
output: 57.5% (inactive)

----------
experiment: M. tuberculosis growth inhibition, HTS (AID 449762);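 further: bacterial growth assessed after seven days of incubation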; conditions: M. tuberculosis H37Rv growth inhibition, 7H9 media; at 25 µM; hits give high values
In all, about 330,000 compounds went through this assay and about 1,900 (0.58%) were called active. Not shown: some 4% with an inconclusive outcome. These entries were drawn from the full list. Measured potencies and affinities stand elsewhere.
Metric: inhibition (%)
Please respond with the number in % and leave the unit unwritten.

Below, 5 compounds whose answers are already recorded.
CCn1nnc(-c2ccccc2NS(=O)(=O)c2ccc(S(=O)(=O)N(C)C3CCCCC3)cc2)n1 = 2.36
CC(=O)c1ccc(N2CCN(C(=S)NCCCN(C)C)CC2)cc1 = 3.66
CCOC(=O)Cc1csc(NC(=O)CSc2nnnn2-c2ccc(F)cc2)n1 = -5.86
COc1ccccc1OCC(=O)Nc1ccc(S(=O)(=O)N(C)c2ccccc2)cc1 = -13.2
CCCCNC(=S)N1CCN(c2ccc(C(C)=O)cc2)CC1 = 7.05

As a next step, examine the compound that follows.
input: Endpoint output: inhibition of CCOc1cc(Cl)c(NC(C)=O)cc1OCC . Value?
output: -1.54

----------
test: M. tuberculosis growth inhibition, HTS (AID 449762);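 further: bacterial growth assessed after seven days of incubation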; conditions: M. tuberculosis H37Rv growth inhibition, 7H9 media; at 25 µM; hits give high values
Out of some 330,000 compounds screened, about 1,900 (0.58%) were called active. Another 4% or so got no clear call; they are omitted. Only a sample is shown. Entries with a potency or affinity are not part of this list.
The following compounds are shown together with reported inhibition values.
Please respond with the number in % and leave the unit unwritten.

Below, 10 compounds whose answers are already recorded.
Cc1ccc(NNc2c(C)nc3ccccc3nc2=O)cc1 = 42.5
CCc1cc2c(Sc3nc4ccccc4s3)ncnc2s1 = 11.1
O=C1C(=C(O)c2ccccc2)C(=O)c2ccccc21 = 4.16
Cc1oc2cc(O)ccc2c(=O)c1-c1cnn(-c2ccccc2)c1 = -3.21
CCN(CC)CCNC(=O)c1cn(-c2ccccc2)nc1-c1cccs1 = 5.6
COc1ccccc1OCCCCN1CCN(c2ccccc2OC)CC1 = -3.03
CCOc1ccc(NC(=S)NC(=O)c2cccnc2)c([N+](=O)[O-])c1 = 6.15
CCOc1ccc(C(C)(C)C)cc1S(=O)(=O)n1nc(C)cc1C = -3.62
COc1ccc(OC)c(N2Cc3ccccc3C2)c1 = 3.42
O=C(O)C1CC=CCC1C(=O)NCCCN1CCCC1=O (stereo not given) = -30.3

input: Endpoint output: inhibition of CN(Cc1nc2ccccc2[nH]1)C(=O)C1CCC(=O)N(CCc2cccc(F)c2)C1 (stereo not given) . Value?
output: -0.88

input: Endpoint output: inhibition of O=S(=O)(Nc1ccccn1)c1ccc(Br)cc1 . Value?
output: 10.2

input: Endpoint output: inhibition of Cc1ccc(/C=C/S(=O)(=O)NCC(=O)OCC(=O)NCc2ccccc2)cc1 . Value?
output: 6.29
